B1: HDV Ribozyme (parent)
chain: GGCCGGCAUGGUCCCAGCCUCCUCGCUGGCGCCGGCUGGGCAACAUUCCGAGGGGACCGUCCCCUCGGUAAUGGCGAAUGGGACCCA

Variants of: B1
Assay: self-cleavage, relative activity (ratio to wild type); higher = more cleavage; co-transcriptional
I'd appreciate it if you could supply self-cleavage values for the items below.
Numbers only.

Look over these answered cases.
Value of self-cleavage reported for the variant A8C G76U is 0.785

Value of self-cleavage reported for the variant C36U G74U is 0.191

Value of self-cleavage reported for the variant G10U C14G is 0.166

Value of self-cleavage reported for the variant G5A C26A is 0.522

Value of self-cleavage reported for the variant C66A A83U is 0.225

List reported self-cleavage for each of these variants:
1. A56U A78G
2. C24G U27G
3. U9A A77C
4. A16G G80C
5. C30A C48U
6. C7U A45C
7. U37G A77G

Result:
1. 0.684
2. 0.0536
3. 0.383
4. 0.249
5. 0.533
6. 0.119
7. 0.0831

Recorded values, source the RNAGym collection of RNA variant scans (doi:10.7554/elife.80360).
